TEST_NAME: MTT cell viability assay, mouse hepatocytes (serum-free RPMI-1640)
Type: cell-based
CONDITION_INFO: BALB/c, isolated mouse hepatocytes

COMPOUND: CC[C@H](C)C(=O)O[C@H]1C[C@@H](C)C=C2C=C[C@H](C)[C@H](CC[C@@H]3C[C@@H](O)CC(=O)O3)[C@H]21 [Lovastatin, lovastatin]
UNIT_ANNOTATION: %
viability at 72 h, 20 μM: 74.9

###

TEST_NAME: MTT cell viability assay, Hep G2 cells (serum-free DMEM)
CONDITION_INFO: human, Hep G2 cells, Cell viability, no lovastatin 72 hr, then taxol 10 nM 48 hr
QUANTITY_NAME: viability at 48 h, 10 nM

MOLECULE: CC(=O)O[C@H]1C(=O)[C@@]2(C)[C@H]([C@H](OC(=O)c3ccccc3)[C@]3(O)C[C@H](OC(=O)[C@H](O)[C@@H](NC(=O)c4ccccc4)c4ccccc4)C(C)=C1C3(C)C)[C@]1(OC(C)=O)CO[C@@H]1C[C@@H]2O [Taxol, paclitaxel]
OBSERVED: 60.5%
